Reported INHIBITION values are given for each entry in this list.
- Test system: Plasmodium falciparum
- assay_method_text: Screen against P. falciparum Asexual Blood Stage (ABS), at 5uM
- Type: functional, Dd2
- measurement_parameters: tested at 5 uM
Among all 65,000 compounds or so, about 2,100 (3.2%) showed an effect of 50% or more. The median lay at about -52%. What follows is part of a selection rich in strong results, with near analogues and random picks from the rest.

molecule | test_system | INHIBITION / %
CC(=O)Nc1ccc(-c2cn(CCn3c(C)cc(C)nc3=O)nn2)cc1 | Plasmodium falciparum | -49.9
CSc1ccc(CN(C)C(=O)c2cc3c([nH]c2=O)CCCC3=O)cc1 | Plasmodium falciparum | -31.6
Cc1ccc(C(=O)NC2CCN(C(=O)Nc3ccncc3)CC2)o1 | Plasmodium falciparum | -195
COc1ccc(C(CNC(=O)c2c(C)noc2C)N(C)C)cc1 (stereo not drawn) | Plasmodium falciparum | -125
CN(Cc1ccc(N(C)C)cc1)C(=O)c1cc2c([nH]c1=O)CCCC2=O | Plasmodium falciparum | 50.8
CN(C)C(=O)[C@@]12CCO[C@@H]1CCN(Cc1ccc3c(c1)OCO3)C2 | Plasmodium falciparum | -52.2
CCc1ccc(NC(=O)CCN2CC(n3nc(C)cc3C)C2)cc1 | Plasmodium falciparum | -12.9
Cc1noc(C2CCN(C(=O)c3ccc(NC4CC4)nc3)CC2)n1 | Plasmodium falciparum | -9.68
Cc1noc(C2CCN(C(=O)c3ccc(C(F)(F)F)nc3)CC2)n1 | Plasmodium falciparum | 57
COc1ccc(-c2cn(CCn3c(C)cc(C)nc3=O)nn2)cn1 | Plasmodium falciparum | -102
Fc1ccc(CN2CCc3ncnc(C4CCOC4)c3CC2)cc1 (stereo not drawn) | Plasmodium falciparum | -78.8
O=S(=O)(NCCCn1cncn1)c1ccc2c(c1)CCCC2 | Plasmodium falciparum | -159
O=C(CN1CCCC(Cn2cncn2)C1)NCCCc1ccccc1 (stereo not drawn) | Plasmodium falciparum | -62.6
O=C(C1CCC2(CCN(c3nncs3)CC2)CO1)N1CCCC1 (stereo not drawn) | Plasmodium falciparum | 13.3
CNC(=O)C1(N2CCC[C@H]2C(=O)NC2CC2)CCCCC1 | Plasmodium falciparum | -145
COc1c(F)cc(-c2cn(CCn3c(C)cc(C)nc3=O)nn2)cc1Cl | Plasmodium falciparum | 59.7
COc1ccc([C@@H]2CN(Cc3cccnc3N)C[C@H]2N(C)C)cc1 | Plasmodium falciparum | 53.9
COc1ccc2nnc(CCCC(=O)NCc3ccccc3OC)n2n1 | Plasmodium falciparum | -64.6
O=C(NCC1(Sc2ccccc2)CC1)c1ccc(=O)[nH]n1 | Plasmodium falciparum | -22.5
CC(C)N1CCOCC2(CCCN(C(=O)c3cncn3C)C2)C1 (stereo not drawn) | Plasmodium falciparum | -78.3
O=C(Cc1ccon1)N1CCN(c2ccc(F)cc2Cl)CC1 | Plasmodium falciparum | -28.3
Cc1cnn(CCC(=O)N2CCC3(CCC(=O)N(CC4CC4)C3)CC2)c1 | Plasmodium falciparum | -49
Cc1ccc(-c2nc(CCNC(=O)NC3CCC(O)CC3)co2)cc1 (stereo not drawn) | Plasmodium falciparum | -137

====

- Test system: Plasmodium falciparum
- assay_method_text: Screen against P. falciparum Asexual Blood Stage (ABS), at 5uM
- Type: functional, Dd2
- measurement_parameters: tested at 5 uM
The whole screen tested about 65,000 compounds, of which about 2,100 (3.2%) showed an effect of 50% or more. The median lay at about -52%. What follows is part of a selection rich in strong results, with near analogues and random picks from the rest.
reported_metric: INHIBITION (%)

molecule | reported_metric | unit_abbrev | quantitative_result
C[C@@H]1CN(c2nc3c(cc2C(N)=O)CCC3)CC[C@@]1(O)C1CCC1 | INHIBITION | % | -80.6
CC(C)N1CCC(CNC(=O)CCc2cc(F)ccc2F)C1 (stereo not given) | INHIBITION | % | 7.8
Cc1cc(-c2nccs2)nc(C2CCN(Cc3cccs3)CC2)n1 | INHIBITION | % | 16.1
O=C(Cc1ccncc1)N1CCC2(CC1)CC(c1ccccc1)CO2 (stereo not given) | INHIBITION | % | -26.8
COc1ccc(C(=O)Nc2c(C(=O)N(C)C)nn(C)c2C)cc1 | INHIBITION | % | -64.8
CN(Cc1cccnc1)C1CC2(CCN(Cc3cccnc3)CC2)C1 | INHIBITION | % | -8.45
OCC1CCC2(CC1)CN(Cc1ccsc1)Cc1ccccc1O2 (stereo not given) | INHIBITION | % | -50.7
CSCCNc1ccc(C(=O)N(C)Cc2ccc3ccccc3n2)cn1 | INHIBITION | % | -73.9
CN(C)CCN(CC1CCCO1)S(=O)(=O)NCc1ccccc1 (stereo not given) | INHIBITION | % | 62
CC(C)(C)CN1CCCC(c2nccnc2Nc2cnccn2)C1 (stereo not given) | INHIBITION | % | 22.1
COCCNC(=O)[C@H]1CN(c2nnc(C)s2)C[C@H]2OCC[C@@H]12 | INHIBITION | % | -167
NC(=O)Cn1cc(NC(=O)N2CCN(c3ccccc3)CC2)cn1 | INHIBITION | % | 63.7
O=C(c1cocn1)N1C[C@@H]2CN(Cc3ccco3)CCO[C@@H]2C1 | INHIBITION | % | -6.8
NC(=O)c1ccccc1Oc1cccc(C2CCCNC2)n1 (stereo not given) | INHIBITION | % | 55.8
O=S(=O)(Cc1cccc(Cl)c1)CC(O)Cn1cccn1 (stereo not given) | INHIBITION | % | -0.894
Cc1nc(C)c(CNC(=O)N2CCN(c3ccc(Cl)cn3)CC2)s1 | INHIBITION | % | -49.6
COCCOc1ccc(C(=O)N[C@@H]2CNCCC[C@H]2O)cc1 | INHIBITION | % | -9.34
Cc1csc2ncnc(N3CCC(Cn4cc(C(C)(C)O)nn4)CC3)c12 | INHIBITION | % | -46.7
COc1cccc(CN2CCCC2c2cncc(Nc3nncs3)n2)c1 (stereo not given) | INHIBITION | % | -8.54
CN1CCOC(CNC(=O)COc2ccc(F)cc2F)C1 (stereo not given) | INHIBITION | % | -69.6
CS(=O)(=O)N1CCN(C(=O)C2CSCCC(=O)N2)CC1 (stereo not given) | INHIBITION | % | -38.6
Cc1nc(CN2CCC(c3nc4cc(Cl)ccc4o3)CC2)oc1C | INHIBITION | % | -53.1
CCOC(=O)c1ccc(S(=O)(=O)NCc2cccnc2N(C)C)cc1 | INHIBITION | % | 54.1
COCc1nc(N(C)C)ncc1C(=O)OC | INHIBITION | % | -29.3
CC(C)N1CCC(CNC(=O)COc2ccc(F)cc2F)C1 (stereo not given) | INHIBITION | % | 53.3
Cc1cc(-c2nccs2)nc(C2CCN(Cc3ccc(F)cc3)CC2)n1 | INHIBITION | % | 62.9
Cc1cc(C)cc(CNc2ccc(C(=O)NC(C)CO)cc2)c1 (stereo not given) | INHIBITION | % | -96.7
COC(=O)c1ccc(S(=O)(=O)NCc2cccnc2N(C)C)cc1 | INHIBITION | % | -8.55
CN(C)S(=O)(=O)N1CC[C@]2(O)CCN(CCCc3cccnc3)C[C@@H]2C1 | INHIBITION | % | -62.2
CN(C)S(=O)(=O)N1CC[C@]2(O)CCN(CCc3cccc(F)c3)C[C@@H]2C1 | INHIBITION | % | 53.4
COCCN1CC[C@@H]2OC[C@H](C(=O)N(C)Cc3ccccn3)C[C@@H]2C1 | INHIBITION | % | 11.1
Cn1nc(C(=O)NCc2ccc(Cl)cc2)c2c1CCS(=O)(=O)C2 | INHIBITION | % | -79
CC(C)c1cc(C(=O)NCCc2nc3c(s2)CCC3)n(C)n1 | INHIBITION | % | -63.4
OC1(CNCc2csc(-c3ncccn3)n2)CCCNC1 (stereo not given) | INHIBITION | % | -26.6
Cc1cccc(CN2CCCC2c2cncc(Nc3nncs3)n2)c1 (stereo not given) | INHIBITION | % | 52.5
O=C(N[C@@H]1CNCCC[C@H]1O)c1ccc(OCCN2CCCC2)cc1 | INHIBITION | % | -65.9
COC(=O)c1cccn1C1CCN(Cc2cnc3ccccn23)CC1 | INHIBITION | % | -55.1
O=C(N[C@@H]1CNCCC[C@H]1O)c1ccc(OCc2ccccc2)cc1 | INHIBITION | % | 63.2
Cc1cc(CN2C[C@@H](C)[C@@]3(CCN(C)C3=O)C2)oc1C | INHIBITION | % | -1.06
N#CC1(C(=O)N2C[C@@H]3CC[C@H]2CN(Cc2cscn2)C3)CCOCC1 | INHIBITION | % | -81.2
Cc1cc(-c2nccs2)nc(C2CCN(Cc3ccncc3)CC2)n1 | INHIBITION | % | -25.9
Cc1ccc(CN2CC[C@@]3(O)CCN(S(=O)(=O)N(C)C)C[C@H]3C2)cc1C | INHIBITION | % | 53.6
CN(C)c1ncccc1CNS(=O)(=O)c1ccc(C(N)=O)cc1 | INHIBITION | % | -34.2
Cc1noc(C)c1CN1CCC(c2nc3cc(Cl)ccc3o2)CC1 | INHIBITION | % | 58.5
CN1CCOCC2(CCCN(C(=O)c3ccc(-n4cccc4)cc3)C2)C1 (stereo not given) | INHIBITION | % | 28.9
